SYSTEM TESTED: KHK-C expressed in NRK-52E cells (Homo sapiens (Human), UniProt P50053)
Sequence (P50053 whole entry): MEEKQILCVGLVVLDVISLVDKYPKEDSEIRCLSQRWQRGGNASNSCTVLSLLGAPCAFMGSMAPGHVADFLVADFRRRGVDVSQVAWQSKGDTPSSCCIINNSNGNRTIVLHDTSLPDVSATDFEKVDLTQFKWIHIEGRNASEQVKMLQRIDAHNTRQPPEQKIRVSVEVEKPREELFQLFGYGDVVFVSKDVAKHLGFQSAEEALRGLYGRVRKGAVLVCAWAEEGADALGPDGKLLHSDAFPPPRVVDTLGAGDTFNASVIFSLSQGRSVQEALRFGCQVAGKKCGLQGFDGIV
ASSAY PROTOCOL: KHK-C Cell-based Assay (EC50), NRK CTG, fructose-mediated ATP-depletion
pEC50: −log10 of the molar value.
RECORDED METRIC: pEC50

> print(dat)
                                chem.smiles                             system.tested  recorded.metric  recorded.number
1  C[C@H]1[C@H](O)CN1c1nc2c(c(-c3ccc4cnc(O)cc4c3)n1)CCC2  KHK-C expressed in NRK-52E cells (Homo sapiens (Human), UniProt P50053)            pEC50             6.40

[I] C[C@H]1[C@H](F)CN1c1nc2c(c(-c3ccc(C(N)=O)cc3)n1)CCC2
[II] C[C@H]1[C@H](O)CN1c1nc(-c2ccc3c(c2)OCCNS3(=O)=O)c2c(n1)C(F)(F)CC2
[III] C[C@H]1CCN1c1nc2c(c(-c3ccc4[nH]c(=O)[nH]c4c3)n1)CCC2
Prompt: Sort low-to-high on pEC50, please. Answer by listing the labels in the requested order.
Response: II, III, I

* * *

SYSTEM TESTED: KHK-C expressed in NRK-52E cells (Homo sapiens (Human))
ASSAY PROTOCOL: KHK-C Cell-based Assay (EC50), NRK CTG, fructose-mediated ATP-depletion
pEC50: −log10 of the molar value.
RECORDED METRIC: pEC50

Some solved entries appear below for comparison.
> print(dat)
                                   compound  recorded.number
1  CC1(c2nc3c(c(-c4ccc(C(N)=O)cc4)n2)CCC3)CCC1 [Example 502]             5.70
2  C[C@H]1CCN1c1nc2c(c(-c3ccc(CNS(C)(=O)=O)cc3)n1)CCC2 [Example 361]             7.18

[a] COc1c(C)cc(-c2nc(N3C[C@@H](O)[C@@H]3C)nc3c2CCC3(F)F)cc1S(C)(=N)=O (stereo partly shown) [Example 722]
[b] C[C@H]1CCN1c1nc2c(c(-c3cc(Cl)cc([C@H]4C[C@@H]4C(=O)O)c3)n1)CCC2 [Example 443]
Prompt: Pick one: a or b . Which has the bigger pEC50 number? The response must carry the label of the picked entry.
Response: a

* * *

SYSTEM TESTED: human KHK-C (Homo sapiens (Human))
ASSAY PROTOCOL: KHK Biochemical Assay (IC50), ADP-Glo, KHK-C
CONDITION DETAILS: ADP-Glo; average of at least two separate assays
RECORDED METRIC: IC50 (nM)

> print(dat)
                                   compound  measurement.unit  recorded.number
1  C[C@H]1[C@H](O)CN1c1nc2c(c(-c3ccc4c(c3)OCCNC4=O)n1)CCC2                nM             16.4
2  C[C@H]1CCN1c1nc2c(c(-c3nc4ccccc4n3C)n1)CCC2                nM              915

[a] C[C@H]1CCN1c1nc2c(c(-c3cc(C(N)=O)cc(C(N)=O)c3)n1)CCC2
[b] C[C@H]1CCN1c1nc(-c2cccc(S(N)(=O)=O)c2)c2c(cnn2C)n1
[c] C[C@H]1CCN1c1nc(-c2ccccc2)c2c(n1)C1CC1C2 (mixture of isomers)
[d] C[C@H]1CCN1c1nc2c(c(-c3cccc(C(=O)Nc4cn[nH]c4)c3)n1)CCC2
Prompt: # desc sort on IC50 across 4 compounds Please, when replying, give the labels in the order that was requested.
Response: c, b, d, a

[a] C[C@H]1[C@H](O)CN1c1nc(-c2ccc(C(N)=O)nc2)c2c(n1)C(F)(F)CC2
[b] C[C@H]1CCN1c1nc2c(c(-c3ccc(-c4ncc[nH]4)cc3)n1)CCC2
Prompt: Identify the item whose IC50 is the smaller number: a or b // respond with label for picked entry
Response: a

[A] CC(=O)NC1COc2cc(-c3nc(N4C[C@@H](O)[C@@H]4C)nc4c3CCC4(F)F)cc(F)c21 (stereo partly drawn)
[B] C[C@H]1CCN1c1nc2c(c(-c3cc4c(=O)[nH]ccc4s3)n1)CCC2
Prompt: Which value of IC50 is smaller, the one for A or the one for B ? // return label of chosen record
Response: B

[I] CNC(=O)c1ccc(-c2nc(N3CC[C@@H]3C)nc3c2CCC3)cc1
[II] C[C@H]1CCN1c1nc2c(c(-c3cccc(C4(C(N)=O)CC4)c3)n1)CCC2
Prompt: Returns: the label, I or II , whose recorded IC50 is the lower number. Selection: enter the item's label.
Response: I
(I: 89.1 nM, II: 517 nM)

[P] C[C@H]1CCN1c1nc2c(c(-c3ccc4c(c3)C[C@@H]3[C@@H](C(N)=O)[C@H]43)n1)CCC2 (relative stereo)
[Q] C[C@H]1[C@H](O)CN1c1nc(-c2ccc(C(N)=O)c(OC(F)F)c2)c2c(n1)C(F)(F)CC2
[R] COC(=O)NC1COc2cc(-c3nc(N4C[C@@H](O)[C@@H]4C)nc4c3CCC4(F)F)ccc21 (stereo partly drawn)
[S] C[C@H]1CCN1c1nc2c(c(-c3cccc(C(=O)N4CC(CC(=O)O)C4)c3)n1)CCC2
Prompt: Let's sort these by IC50, smallest first. Go ahead? To answer, arrange all of the labels according to the requested order.
Response: R, Q, P, S
(R: 1.6 nM, Q: 10.2 nM, P: 90.3 nM, S: 145 nM)

[a] C[C@H]1CCN1c1nc2c(c(-c3ccc4c(=O)[nH]cnc4c3)n1)CCC2
[b] C[C@H]1[C@H](O)CN1c1nc2c(c(-c3ccc(C(N)=O)s3)n1)CCC2
[c] C[C@H]1CCN1c1nc2c(c(-c3ccc(C(N)=O)c(F)c3)n1)CCC2
[d] C[C@H]1CCN1c1nc2c(c(-c3nc4cc(F)ccc4n3C)n1)CCC2
Prompt: Write the entries in order, lowest recorded IC50 first. Give the labels in the order specified.
Response: a, b, c, d

[P] CNCc1cccc(-c2nc(N3CC[C@@H]3C)nc3c2CCC3)c1
[Q] C[C@H](O)C(=O)NCc1cccc(-c2nc(N3CC[C@@H]3C)nc3c2CCC3)c1
[R] C[C@H]1CCN1c1nc2c(c(-c3ccc(C4(N)CCC4)cc3)n1)CCC2
[S] C[C@H]1[C@H](O)CN1c1nc(-c2ccc(C#N)c(S(C)(=N)=O)c2)c2c(n1)C(F)(F)CC2 (stereo partly drawn)
Prompt: Ordering criterion: IC50; begin with the maximum. Would you mind listing the labels in the order requested?
Response: Q, S, P, R

[I] C[C@H]1CCN1c1nc2c(c(-c3cccc(S(=N)(=O)c4ccc(C#N)cc4C4CC4)c3)n1)CCC2 (stereo partly drawn)
[II] C[C@H]1CCN1c1nc2c(c(-c3ccc(C4(N)COC4)cc3)n1)CCC2
[III] C[C@H]1CCN1c1nc(-c2ccccc2)c2c(ncn2C)n1
[IV] C[C@H]1CCN1c1nc2c(c(-c3ccc4c(c3)S(=O)(=O)CNC4=O)n1)CCC2
Prompt: Reorder: IC50, max to min. // ordering of labels required in reply
Response: III, I, IV, II
(III: 4760 nM, I: 118 nM, IV: 18.9 nM, II: 2.6 nM)
